System: Liver: PLC/PRF5, Hep3B, Huh7
assay_protocol: Determination of EC50 in cancer cells, liver
Type: cell-based
condition_details: Liver tumor cell lines; incubated at least 24 hours
assay_readout: pEC50
Field pEC50 (float): negative decimal logarithm of the concentration in molar.

Query: Any idea what pEC50 was measured for Nc1ncnc2c1c(=O)ccn2[C@@H]1O[C@H](CO)[C@@H](O)[C@H]1O ?
Response: 6.54

###

Test system: Ovarian: IGROV1, OVCAR-3, OVCAR-4, OVCAR-5, SK-OV-3
assay_protocol: Determination of EC50 in cancer cells, ovarian
Format: cell-based
condition_details: Ovarian tumor cell lines; incubated at least 24 hours
assay_readout: pEC50
// pEC50 here means minus log10 of the molar concentration (mol/L)

Query: Tell me reported pEC50 for Nc1ncnc2c1c(=O)ccn2[C@@H]1O[C@H](CO)[C@@H](O)[C@H]1O , tested with Ovarian: IGROV1, OVCAR-3, OVCAR-4, OVCAR-5, SK-OV-3.
Response: 7.68
